molecular target: UniProt:P00918; assay: Human carbonic anhydrase-II inhibition assay (absorbance, 4-NPA substrate); assay type: biochemical; settings: hCA II 8 nM, 4-NPA 2.5 mM, absorbance 340 nm; read-out: CA-II IC50
pIC50: −log10 of the molar value.
metric: pIC50

molecule | value_measured
NS(=O)(=O)c1ccc(C(=O)N2C[C@H]3CN(C(=O)OCc4ccc(OC(F)(F)F)cc4)C[C@]3(F)C2)c(F)c1 (relative stereo) | 8.22
CO[C@@]12CN(C(=O)OCc3ccc(OC(F)(F)F)cc3)C[C@H]1CN(C(=O)c1ccc(S(N)(=O)=O)cc1)C2 (single isomer, unassigned) | 7.74
NS(=O)(=O)c1ccc(C(=O)N2C[C@@H]3CN(C(=O)OCc4ccc(OC(F)(F)F)cc4)C[C@@]3(F)C2)cc1 (single isomer, unassigned) [Example 5.02] | 7.82
CO[C@@]12CN(C(=O)c3cc(OCC4CCOCC4)nc(C4CC4)c3)C[C@H]1CN(C(=O)c1ccc(S(N)(=O)=O)cn1)C2 (relative stereo) | 8.00
NS(=O)(=O)c1ccc(C(=O)N2C[C@H]3CN(C(=O)/C=C/c4ccc(OC(F)(F)F)cc4)C[C@]3(F)C2)c(F)c1 (relative stereo) | 8.05

a. NS(=O)(=O)c1ccc(C(=O)N2C[C@@H]3CN(C(=O)OCc4ccc(OC(F)(F)F)cc4)C[C@@]3(F)C2)cc1 (single isomer, unassigned) [Example 4.02]
b. CO[C@@]12CN(C(=O)OCc3ncc(C(F)(F)F)cc3NC(=O)C(C)(C)C)C[C@H]1CN(C(=O)c1ccc(S(N)(=O)=O)cc1)C2 (single isomer, unassigned)
c. NS(=O)(=O)c1ccc(C(=O)N2C[C@@H]3CN(C(=O)c4cc(OCC5CCOCC5)nc(C5CC5)c4)C[C@@]3(F)C2)c(F)c1 (relative stereo)
d. C[C@@]12CN(C(=O)OCc3ccc(OC(F)(F)F)cc3)C[C@H]1CN(C(=O)c1ccc(S(N)(=O)=O)cc1)C2
Rank order required: pIC50, descending. Respond with an ordered listing of the labels, as requested.
c, a, b, d

###

The listing below reports pIC50 for compounds tested on UniProt:Q13822.
pIC50: −log10 of the molar value.
metric: pIC50

compound | pIC50
CO[C@]12CN(C(=O)OCc3ncc(C(F)(F)F)cc3NC(=O)C(C)(C)C)C[C@@H]1CN(C(=O)c1ccc(S(N)(=O)=O)cc1F)C2 (racemic) | 8.10
C[C@]12CN(C(=O)OCc3ccc(OC(F)(F)F)cc3)C[C@@H]1CN(C(=O)c1ccc(S(N)(=O)=O)cc1)C2 (racemic) | 8.22
CO[C@@]12CN(C(=O)OCc3ncc(C(F)(F)F)cc3NC(=O)C(C)(C)C)C[C@H]1CN(C(=O)c1ccc(S(N)(=O)=O)cc1)C2 (single isomer, unassigned) | 7.96
CO[C@@]12CN(C(=O)OCc3ccc(OC(F)(F)F)cc3)C[C@H]1CN(C(=O)c1ccc(S(N)(=O)=O)cc1)C2 (single isomer, unassigned) | 8.22
NS(=O)(=O)c1ccc(C(=O)N2C[C@@H]3CN(C(=O)OCc4ccc(OC(F)(F)F)cc4)C[C@@]3(F)C2)cc1 (single isomer, unassigned) | 8.10

Where do the numbers come from? From patent US10738053B2.
